Measured values drawn from patent US12606543B2 for this set.

- TESTED_SYSTEM: human 5-HT2B receptor (Homo sapiens, UniProt P41595)
- Sequence (P41595 whole entry): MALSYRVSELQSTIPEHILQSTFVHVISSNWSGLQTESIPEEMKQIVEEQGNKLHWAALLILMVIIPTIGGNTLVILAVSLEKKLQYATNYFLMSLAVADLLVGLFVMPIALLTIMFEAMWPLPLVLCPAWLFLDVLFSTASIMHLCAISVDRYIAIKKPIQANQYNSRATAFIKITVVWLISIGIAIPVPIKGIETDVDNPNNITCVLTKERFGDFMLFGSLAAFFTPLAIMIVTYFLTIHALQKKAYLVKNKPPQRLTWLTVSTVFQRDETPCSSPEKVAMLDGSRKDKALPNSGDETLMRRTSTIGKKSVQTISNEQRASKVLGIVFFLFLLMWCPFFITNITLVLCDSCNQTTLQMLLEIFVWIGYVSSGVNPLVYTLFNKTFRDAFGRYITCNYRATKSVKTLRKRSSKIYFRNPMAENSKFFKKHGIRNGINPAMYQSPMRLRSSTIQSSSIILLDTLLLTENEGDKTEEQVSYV
- MEASUREMENT_NOTES: Human 5-HT2B radioligand binding assay ([3H]-LSD)
pIC50: −log10 of the molar value.

MOLECULE	pIC50
CSc1ccc2[nH]cc(C[C@H]3CCCN3C)c2c1 [(R) I-1]	7.72

====

- MEASUREMENT_NOTES: Pharmacokinetic studies in rat (i.v.)
- Assay type: in vivo
- CONDITION_SET: male, Sprague-Dawley, plasma, iv, rat plasma, i.v., dose per Dose column, first animal (R07/R04/R01/R10), read-out: AUC0-tlast
Catalogue of AUC(0-t) values
METRIC: AUC(0-t)

COMPOUND	METRIC	EXPERIMENTAL_RESULT
[2H]C([2H])(c1c[nH]c2ccc(OCCCCCN3C(=O)c4ccccc4C3=O)cc12)[C@H]1CCCN1C([2H])([2H])[2H] [(R) I-245]	AUC(0-t)	528 ng·h/mL
[2H]C([2H])(c1c[nH]c2ccc(OCCCCN3C(=O)c4ccccc4C3=O)cc12)[C@H]1CCCN1C([2H])([2H])[2H] [(R) I-244]	AUC(0-t)	390 ng·h/mL
COCCN1CCC[C@@H]1Cc1c[nH]c2ccc(OC)cc12 [(R) I-98]	AUC(0-t)	403 ng·h/mL
[2H]C([2H])(c1c[nH]c2ccc(OCCCCCN3C(=O)C4CCCCC4C3=O)cc12)[C@H]1CCCN1C([2H])([2H])[2H] (mixture of isomers) [Rac (R) I-248]	AUC(0-t)	402 ng·h/mL

====

- MEASUREMENT_NOTES: Plasma protein binding by equilibrium dialysis, rat
- CONDITION_SET: Sprague-Dawley, rat, plasma
METRIC: fraction unbound at 6 h, 1 μM

MOLECULE	EXPERIMENTAL_RESULT
CC(=O)N1CCN(c2ccc(OCC3COC(Cn4ccnc4)(c4ccc(Cl)cc4Cl)O3)cc2)CC1 (centres unmarked) [Ketoconazole, reference compound]	0.0045
CSc1ccc2[nH]cc(C[C@H]3CCCN3C)c2c1 [(R) I-1]	0.534

====

- MEASUREMENT_NOTES: Plasma protein binding by equilibrium dialysis, mouse
- Assay type: in vitro ADME
- CONDITION_SET: CD-1; Mouse plasma, 1 μM, equilibrium dialysis 6 hours, 37° C.; read-out: % Bound (converted)
Catalogue of fraction unbound at 6 h, 1 μM values

COMPOUND	fraction unbound at 6 h, 1 μM
CC(=O)N1CCN(c2ccc(OCC3COC(Cn4ccnc4)(c4ccc(Cl)cc4Cl)O3)cc2)CC1 (centres unmarked) [Ketoconazole, reference compound]	0.0068
CSc1ccc2[nH]cc(C[C@H]3CCCN3C)c2c1 [(R) I-1]	0.521

====

- MEASUREMENT_NOTES: Pharmacokinetic studies in rat (i.v.)
- Assay type: in vivo
- CONDITION_SET: male, Sprague-Dawley, plasma, iv, 1.19 mg/kg, rat plasma, i.v., dose 1.19 mg/kg, 4 h, rat R01, read-out: Plasma concentration, R01
METRIC: concentration at 4 h (ng/mL)

MOLECULE	EXPERIMENTAL_RESULT
CSc1ccc2[nH]cc(C[C@H]3CCCN3C)c2c1 [(R) I-1]	7.04

====

- MEASUREMENT_NOTES: Pharmacokinetic studies in rat (i.v.)
- Format: in vivo
- CONDITION_SET: male, Sprague-Dawley, plasma, iv, rat plasma, i.v., dose per Dose column, mean of 3 rats, read-out: AUC0-tlast, Mean ± SD
Catalogue of AUC(0-t) values
METRIC: AUC(0-t) (µg·h/mL)

COMPOUND	EXPERIMENTAL_RESULT
COCCN1CCC[C@@H]1Cc1c[nH]c2ccc(OC)cc12 [(R) I-98]	0.409
[2H]C([2H])(c1c[nH]c2ccc(OCCCCCN3C(=O)c4ccccc4C3=O)cc12)[C@H]1CCCN1C([2H])([2H])[2H] [(R) I-245]	0.397
[2H]C([2H])(c1c[nH]c2ccc(OCCCCCN3C(=O)C4CCCCC4C3=O)cc12)[C@H]1CCCN1C([2H])([2H])[2H] (mixture of isomers) [Rac (R) I-248]	0.474
[2H]C([2H])(c1c[nH]c2ccc(OCCCCN3C(=O)c4ccccc4C3=O)cc12)[C@H]1CCCN1C([2H])([2H])[2H] [(R) I-244]	0.415

====

- MEASUREMENT_NOTES: Pharmacokinetic studies in rat (i.v.)
- Format: in vivo
- CONDITION_SET: male, Sprague-Dawley, plasma, intravenous, dose per Dose column (1.32-2.09 mg/kg), 0.25 h, second animal (R08/R05/R02/R11), read-out: Plasma concentration
METRIC: concentration at 0.25 h (ng/mL)

COMPOUND	METRIC	EXPERIMENTAL_RESULT
[2H]C([2H])(c1c[nH]c2ccc(OCCCCCN3C(=O)c4ccccc4C3=O)cc12)[C@H]1CCCN1C([2H])([2H])[2H] [(R) I-245]	concentration at 0.25 h	154
[2H]C([2H])(c1c[nH]c2ccc(OCCCCCN3C(=O)C4CCCCC4C3=O)cc12)[C@H]1CCCN1C([2H])([2H])[2H] (mixture of isomers) [Rac (R) I-248]	concentration at 0.25 h	437
[2H]C([2H])(c1c[nH]c2ccc(OCCCCN3C(=O)c4ccccc4C3=O)cc12)[C@H]1CCCN1C([2H])([2H])[2H] [(R) I-244]	concentration at 0.25 h	360
COCCN1CCC[C@@H]1Cc1c[nH]c2ccc(OC)cc12 [(R) I-98]	concentration at 0.25 h	479

====

- MEASUREMENT_NOTES: Liver microsomes stability, rat
- Format: in vitro ADME
- CONDITION_SET: male; rat liver microsomes, 2 μM compound, 0.5 mg/mL microsomes
Catalogue of microsomal CLint at 2 μM values

COMPOUND	MODIFIER	microsomal CLint at 2 μM (µL/min/mg)
[2H]C([2H])(c1c[nH]c2ccc(OCCCCCN3C(=O)C4CCCCC4C3=O)cc12)[C@H]1CCCN1C([2H])([2H])[2H] (mixture of isomers) [Rac (R) I-248]	>	307
[2H]C([2H])(c1c[nH]c2ccc(OCCCCCN3C(=O)c4ccccc4C3=O)cc12)[C@H]1CCCN1C([2H])([2H])[2H] [(R) I-245]	>	307
[2H]C([2H])(c1c[nH]c2ccc(OCCCCN3C(=O)c4ccccc4C3=O)cc12)[C@H]1CCCN1C([2H])([2H])[2H] [(R) I-244]	=	201
COCCN1CCC[C@@H]1Cc1c[nH]c2ccc(OC)cc12 [(R) I-98]	=	138

====

- MEASUREMENT_NOTES: Pharmacokinetic studies in rat (i.v.)
- Format: in vivo
- CONDITION_SET: male, Sprague-Dawley, plasma, iv, rat plasma, i.v., dose per Dose column, estimated from 2 points only, mean of 3 rats, read-out: Apparent t1/2, Mean ± SD (converted)

COMPOUND	half-life, min
[2H]C([2H])(c1c[nH]c2ccc(OCCCCN3C(=O)c4ccccc4C3=O)cc12)[C@H]1CCCN1C([2H])([2H])[2H] [(R) I-244]	63
[2H]C([2H])(c1c[nH]c2ccc(OCCCCCN3C(=O)c4ccccc4C3=O)cc12)[C@H]1CCCN1C([2H])([2H])[2H] [(R) I-245]	126
[2H]C([2H])(c1c[nH]c2ccc(OCCCCCN3C(=O)C4CCCCC4C3=O)cc12)[C@H]1CCCN1C([2H])([2H])[2H] (mixture of isomers) [Rac (R) I-248]	56.3
COCCN1CCC[C@@H]1Cc1c[nH]c2ccc(OC)cc12 [(R) I-98]	30.4

====

Catalogue of recovery at 6 h, 1 µM values
- MEASUREMENT_NOTES: Plasma protein binding by equilibrium dialysis, rat
- CONDITION_SET: Sprague-Dawley (SD), rat

MOLECULE	recovery at 6 h, 1 µM
COCCN1CCC[C@@H]1Cc1c[nH]c2ccc(OC)cc12 [(R) I-98]	88%
[2H]C([2H])(c1c[nH]c2ccc(OCCCCN3C(=O)c4ccccc4C3=O)cc12)[C@H]1CCCN1C([2H])([2H])[2H] [(R) I-244]	86.5%
CC(=O)N1CCN(c2ccc(OCC3COC(Cn4ccnc4)(c4ccc(Cl)cc4Cl)O3)cc2)CC1 (stereo not drawn) [Ketoconazole, reference compound]	101%

====

Catalogue of recovery at 6 h, 1 µM values
- MEASUREMENT_NOTES: Plasma protein binding by equilibrium dialysis, rat
- CONDITION_SET: SD, rat
METRIC: recovery at 6 h, 1 µM (%)

COMPOUND	EXPERIMENTAL_RESULT
CC(=O)N1CCN(c2ccc(OCC3COC(Cn4ccnc4)(c4ccc(Cl)cc4Cl)O3)cc2)CC1 (centres unmarked) [Ketoconazole, reference compound]	105
CSc1ccc2[nH]cc(C[C@H]3CCCN3C)c2c1 [(R) I-1]	103
